Data origin: the RNAGym collection of RNA variant scans (doi:10.1038/s41586-018-0170-7)

B1: tRNA (parent)
chain: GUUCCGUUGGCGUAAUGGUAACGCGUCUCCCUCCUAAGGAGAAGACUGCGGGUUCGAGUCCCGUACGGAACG

variants of: B1; test: yeast fitness, log relative to wild type (ln ratio); higher = fitter; tRNA-Arg(CCU), competitive growth, 37 C, 1 M NaCl
List of yeast fitness (ln) values.
Would you mind answering with just the numeric figure?

Examples with their reported yeast fitness (ln) follow.
AUUCCUUUGGCGUAAUGGUAACGCGUCUCCCUCCUAAGGAGACGACUGCGGGUUCGAGUCCCGUAUGGGAUG [G1A G6U A43C C66U A69G C71U]    -0.587
GCUCCAUUGGCGUAAUGGUAACGCGUUUCCCUCCUAAGGAGAAGAUUGCGGGUUCGAGUCCCGUACGGGAUG [U2C G6A C27U C46U A69G C71U]    -0.172
GGUCCUUUGGCGUAAUGGUAACGCGUUUCCCUCCUAAGGAGAAGAUUGCGGGUUCGAGUCCCGUAUGGAAUG [U2G G6U C27U C46U C66U C71U]    -0.246
GUUCCGUUGGCGUAAUGGUAACGCGUUUCCCUCCUAAGGAGACGAUUGCGGGUUCGAGUCCCGUAAGGAGCG [C27U A43C C46U C66A A70G]    -0.0609

Please look up its yeast fitness (ln): AGUCCUUUGGCGUAAUGGUAACGCGUUUCCCUCCUAAGGAGACGAUUGCGGGUUCGAGUCCCGUAAGGAUUG [G1A U2G G6U C27U A43C C46U C66A A70U C71U] -0.626

Please look up its yeast fitness (ln): GCUCCAUUGGCGUAAUGGUAACGCGUUUCCCUCCUAAGGAGACGACUGCGGGUUCGAGUCCCGUAUGGAGCG [U2C G6A C27U A43C C66U A70G] -0.0396

Please look up its yeast fitness (ln): GGUCCAUUGGCGUAAUGGUAACGCGUCUCCCUCCUAAGGAGAAGACUGCGGGUUCGAGUCCCGUACGGGGCG [U2G G6A A69G A70G] -0.139

Please look up its yeast fitness (ln): GGUCCGUUGGCGUAAUGGUAACGCGUCUCCCUCCUAAGGAGAAGAUUGCGGGUUCGAGUCCCGUAAGGAUCG [U2G C46U C66A A70U] -0.0904

Please look up its yeast fitness (ln): GCUCCAUUGGCGUAAUGGUAACGCGUUUCCCUCCUAAGGAGAAGAUUGCGGGUUCGAGUCCCGUACGGAGUG [U2C G6A C27U C46U A70G C71U] -0.239

Please look up its yeast fitness (ln): AUUCCUUUGGCGUAAUGGUAACGCGUUUCCCUCCUAAGGAGACGAUUGCGGGUUCGAGUCCCGUAUGGGGUG [G1A G6U C27U A43C C46U C66U A69G A70G C71U] -0.501

Please look up its yeast fitness (ln): GGUCCAUUGGCGUAAUGGUAACGCGUCUCCCUCCUAAGGAGACGAUUGCGGGUUCGAGUCCCGUAUGGGGCG [U2G G6A A43C C46U C66U A69G A70G] -0.199

Please look up its yeast fitness (ln): AGUCCGUUGGCGUAAUGGUAACGCGUUUCCCUCCUAAGGAGACGAUUGCGGGUUCGAGUCCCGUACGGAAUG [G1A U2G C27U A43C C46U C71U] -0.0914
